Biological target: UniProt P78329
Sequence (P78329 whole entry): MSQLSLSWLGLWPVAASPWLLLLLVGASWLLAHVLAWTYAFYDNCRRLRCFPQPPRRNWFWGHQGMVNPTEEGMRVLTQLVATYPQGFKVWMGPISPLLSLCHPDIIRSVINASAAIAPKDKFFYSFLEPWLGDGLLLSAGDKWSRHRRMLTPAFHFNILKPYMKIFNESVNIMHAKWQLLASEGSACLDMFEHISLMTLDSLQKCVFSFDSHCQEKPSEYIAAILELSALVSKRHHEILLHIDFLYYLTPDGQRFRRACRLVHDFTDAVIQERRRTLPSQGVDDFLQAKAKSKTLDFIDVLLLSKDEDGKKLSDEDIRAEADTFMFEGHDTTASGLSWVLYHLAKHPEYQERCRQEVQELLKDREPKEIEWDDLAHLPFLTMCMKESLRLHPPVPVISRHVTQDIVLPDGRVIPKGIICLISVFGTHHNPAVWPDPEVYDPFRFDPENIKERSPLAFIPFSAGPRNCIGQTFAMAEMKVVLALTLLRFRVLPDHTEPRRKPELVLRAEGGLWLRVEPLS
Experiment: Inhibition of recombinant CYP4F2 (unknown origin) incubated for 5 to 15 mins in presence of NADPH by LC-MS/MS analysis
Assay type: ADME
pIC50: −log10 of the molar value.

| Smiles entry | pIC50 |
| --- | --- |
| CC(=O)OC[C@@]12CC[C@@]3(C)[C@H]4C(=CC[C@]3(C)[C@H]1[C@H](O)C[C@H]2C(C)C)[C@@]1(C)CCC(=O)C(C)(C)[C@@H]1C[C@@H]4O | 5.38 |

----------
test: Drug recovery in human liver microsomes assessed as NADPH-fortified oxidative metabolism recovery in presence of arachidonic acid incubated for 30 mins; format: ADME, Microsome; details: read-out: Drug recovery

| Smiles entry | remaining at 0.5 h |
| --- | --- |
| O=c1cc(-c2ccc(C(F)(F)F)cc2)oc2ccccc12 | 87% |

----------
molecular target: CYP450 (EpETrE formation) (Homo sapiens, UniProt P04798+P05177+P05181+P08684+P10632+P10635+P11509+P11712+P13584+P20813+P20815+P20853+P24462+P24903+P33260+P33261+P51589+P78329+P98187+Q02928+Q08477+Q16678+Q16696+Q5TCH4+Q6VVX0+Q7Z449+Q8TAV3+Q96SQ9+Q9HB55); assay: Inhibition of CYP450 in human liver microsomes assessed as inhibition of EpETrE formation at 10 uM in presence of arachidonic acid and NADPH by multi-enzyme assay based LC-MS/MS analysis relative to control; format: ADME, Microsome; conditions: probe arachidonic acid
Let's look at some compounds and their measured inhibition at 10 µM.
Result type: inhibition at 10 µM

| Compound | Recorded value |
| --- | --- |
| COc1ccc2oc(-c3ccccc3)cc(=O)c2c1 | 16% |
| COc1ccc(-c2coc3cc(O)cc(O)c3c2=O)cc1 | < 15% |
| COc1ccc2oc(-c3ccc(C(F)(F)F)cc3)cc(=O)c2c1 | < 15% |
| O=c1cc(-c2ccccc2O)oc2ccccc12 | 24% |
| COc1cccc(-c2coc3ccccc3c2=O)c1 | < 15% |
| O=c1cc(-c2ccc(Br)cc2)oc2ccccc12 | < 15% |
| O=c1cc(-c2ccccc2)oc2ccc(O)cc12 [6-HYDROXYFLAVONE] | 15% |
| O=c1cc(-c2ccc(C(F)(F)F)cc2)oc2ccccc12 | < 15% |
| COc1ccc(-c2coc3ccccc3c2=O)cc1OC | < 15% |
| COc1ccc2oc(-c3ccc(OC)c(OC)c3)cc(=O)c2c1 | < 15% |
| O=c1cc(-c2ccccc2)oc2cc(O)c(O)c(O)c12 | 32% |
| Cc1ccc(-c2cc(=O)c3ccccc3o2)cc1 | 26% |
| O=c1cc(-c2ccccc2)oc2cc(O)ccc12 [7-HYDROXYFLAVONE] | 35% |
| COc1ccc(-c2cc(=O)c3cc(OC)ccc3o2)cc1 | < 15% |
| COc1ccc2c(=O)cc(-c3ccccc3)oc2c1 | 50% |
| O=c1cc(-c2ccc(O)c(O)c2)oc2ccccc12 | 19% |
| COc1ccccc1-c1cc(=O)c2ccccc2o1 | 37% |
| O=c1cc(-c2ccc(O)cc2)oc2ccccc12 | < 15% |
| COc1cccc(-c2cc(=O)c3cc(OC)ccc3o2)c1 | < 15% |
| O=c1cc(-c2ccccc2)oc2ccccc12 | < 15% |
| O=c1cc(-c2ccc(Br)cc2)oc2ccc(O)cc12 | < 15% |
| COc1ccc2oc(-c3ccc(Br)cc3)cc(=O)c2c1 | < 15% |
| COc1cc2oc(-c3ccccc3)cc(=O)c2c(OC)c1OC | < 15% |
| COc1ccccc1-c1coc2ccccc2c1=O | < 15% |
| COc1ccc(-c2cc(=O)c3ccccc3o2)cc1OC | < 15% |
| O=c1c(-c2ccc(O)cc2)coc2cc(O)cc(O)c12 | < 15% |
| COc1ccc(-c2cc(=O)c3ccccc3o2)cc1 | 20% |
| O=c1cc(-c2ccc(O)c(O)c2)oc2ccc(O)cc12 | < 15% |
| O=c1c(-c2ccccc2)coc2ccccc12 | < 15% |
| COc1ccc(-c2coc3ccccc3c2=O)cc1 | < 15% |

Reference source: ChEMBL document CHEMBL5113402
